# test_target: E3 ubiquitin-protein ligase XIAP (Homo sapiens, UniProt P98170)
# Sequence (P98170 whole entry, the tested form may be a part): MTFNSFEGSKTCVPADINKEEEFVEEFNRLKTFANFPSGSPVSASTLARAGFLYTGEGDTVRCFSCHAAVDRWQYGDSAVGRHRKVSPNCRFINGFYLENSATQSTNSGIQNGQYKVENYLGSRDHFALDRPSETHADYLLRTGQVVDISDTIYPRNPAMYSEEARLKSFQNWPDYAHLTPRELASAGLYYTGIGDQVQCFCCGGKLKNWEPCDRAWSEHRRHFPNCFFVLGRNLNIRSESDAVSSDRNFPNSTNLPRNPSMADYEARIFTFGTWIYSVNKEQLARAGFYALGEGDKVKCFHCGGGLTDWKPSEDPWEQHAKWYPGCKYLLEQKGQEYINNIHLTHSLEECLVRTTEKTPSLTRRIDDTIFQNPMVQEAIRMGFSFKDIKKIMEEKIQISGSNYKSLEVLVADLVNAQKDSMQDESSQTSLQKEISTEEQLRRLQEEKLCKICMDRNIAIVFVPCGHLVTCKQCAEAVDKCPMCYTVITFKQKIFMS
# protocol_description: Competitive inhibition of human XIAP BIR3 domain expressed in Escherichia coli BL21(DE3) after 2 to 3 hrs by fluorescence polarization assay
pIC50: −log10 of the molar value.

{"compound": "CN[C@@H](C)C(=O)N[C@H]1CN(C(=O)CC(C)C)CC[C@H]2CC[C@@H](C(=O)NC(c3ccccc3)c3ccccc3)N2C1=O [XEVINAPANT]", "pIC50": 6.65}

---

# test_target: E3 ubiquitin-protein ligase XIAP (Homo sapiens, UniProt P98170)
# protocol_description: Competitive inhibition of human XIAP BIR3 domain expressed in Escherichia coli BL21(DE3) after 2 to 3 hrs by fluorescence polarization assay
readout_kind: Ki (nM)

{"compound": "CN[C@@H](C)C(=O)N[C@H]1CN(C(=O)CC(C)C)CC[C@H]2CC[C@@H](C(=O)NC(c3ccccc3)c3ccccc3)N2C1=O [XEVINAPANT]", "test_target": "E3 ubiquitin-protein ligase XIAP (Homo sapiens, UniProt P98170)", "endpoint_value": 66.4}
